Numbers sourced from ChEMBL document CHEMBL2390920.

Assay target: G-protein coupled receptor 35 (Mus musculus)
Assay summary: Agonist activity at mouse GPR35 expressed in CHO cells assessed as induction of beta-arrestin recruitment at 10 uM after 90 mins by beta-galactosidase reporter gene assay
Assay type: cell-based
Measurement kind: Activity

In [3]: df
Out[3]:
                      smiles_representation  measurement_kind  experimental_result
0  CCOC(=O)c1cc(=O)c2cc(F)cc(NC(=O)c3ccc(OC)cc3)c2o1          Activity                   7%
1  O=C(Nc1cc(Cl)cc2c(=O)cc(C(=O)O)oc12)c1ccc([N+](=O)[O-])cc1          Activity                  18%
2  O=C(O)c1cc(=O)c2cccc(NC(=O)C3CCCCC3)c2o1          Activity                  38%
3  O=C(Nc1cc(Cl)cc2c(=O)cc(C(=O)O)oc12)c1ccccc1          Activity                  31%
4  Cc1ccc(C(=O)Nc2cccc3c(=O)cc(C(=O)O)oc23)cc1          Activity                  43%
5  O=C(O)c1cc(=O)c2cc(F)cc(NC(=O)c3ccc(Cl)cc3Cl)c2o1          Activity                  24%

---

Each record here notes measured Activity.
Assay target: G-protein coupled receptor 55 (Homo sapiens)
Sequence (Q9Y2T6 whole entry): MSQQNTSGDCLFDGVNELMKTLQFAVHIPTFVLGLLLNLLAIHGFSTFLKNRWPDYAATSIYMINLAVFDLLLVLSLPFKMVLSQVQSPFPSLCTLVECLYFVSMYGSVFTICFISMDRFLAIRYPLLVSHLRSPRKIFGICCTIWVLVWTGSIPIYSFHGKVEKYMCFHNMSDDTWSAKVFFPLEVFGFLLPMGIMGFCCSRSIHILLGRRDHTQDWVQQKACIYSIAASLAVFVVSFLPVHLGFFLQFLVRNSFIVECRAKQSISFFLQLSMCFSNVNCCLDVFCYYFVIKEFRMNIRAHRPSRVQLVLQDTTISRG
Assay summary: Agonist activity at human GPR55 expressed in CHO cells assessed as induction of beta-arrestin recruitment at 10 uM after 90 mins by beta-galactosidase reporter gene assay relative to lysophosphotidylinositol
Assay type: functional, cell-based
Measurement kind: Activity (%)

In [3]: df
Out[3]:
                       smiles_representation  measurement_kind  experimental_result
 0           Nc1cc(Br)cc2c(=O)cc(C(=O)O)oc12          Activity                    4
 1  Cc1cccc(C(=O)Nc2cccc3c(=O)cc(C(=O)O)oc23)c1          Activity                   10
 2    O=C(O)c1cc(=O)c2cccc([N+](=O)[O-])c2o1          Activity                   -6
 3  COc1ccc(C(=O)Nc2cccc3c(=O)cc(C(=O)O)oc23)cc1          Activity                    0
 4  O=C(Nc1cccc2c(=O)cc(C(=O)O)oc12)c1ccc2ccccc2c1          Activity                    6
 5  COc1ccc(C(=O)Nc2cc(Br)cc3c(=O)cc(C(=O)O)oc23)cn1          Activity                    9
 6  O=C(O)c1cc(=O)c2cc(F)cc(NC(=O)c3ccc(Cl)cc3Cl)c2o1          Activity                   -8
 7  O=C(Nc1cc(Cl)cc2c(=O)cc(C(=O)O)oc12)c1ccc([N+](=O)[O-])cc1          Activity                    8
 8  CCOc1ccc(C(=O)Nc2cc(Br)cc3c(=O)cc(C(=O)O)oc23)cc1          Activity                   -1
 9  O=C(Nc1cccc2c(=O)cc(C(=O)O)oc12)c1ccc(C(F)(F)F)cc1          Activity                    1
10  O=C(Cc1ccccc1)Nc1cccc2c(=O)cc(C(=O)O)oc12          Activity                  -11
11  O=C(Nc1cc(Br)cc2c(=O)cc(C(=O)O)oc12)c1ccccc1          Activity                   23
12         CC(=O)Nc1cccc2c(=O)cc(C(=O)O)oc12          Activity                    1
13  O=C(Nc1cc(Br)cc2c(=O)cc(C(=O)O)oc12)c1ccc(Cl)cc1          Activity                   12
